Form field: melting point (one value per entry).
PROPERTY NAME: melting point

{"COMPOUND": "COC(=O)C1=C(C)NC(C)=C(S(=O)(=O)c2ccc(OC)cc2)C1c1ccccc1Cl (centres undefined)", "OBS VALUE": "176 to 178 °C"}
{"COMPOUND": "Nc1nc(N)c(C(=O)N=CNNC(=O)n2ccnc2)nc1F", "OBS VALUE": "227 to 230 °C"}
{"COMPOUND": "CC1N(C(=O)c2ccc(C(F)(F)F)cc2)CC(n2cncn2)OC1(Cn1cncn1)c1ccc(Cl)cc1Cl (centres undefined)", "OBS VALUE": "191 to 201 °C"}
{"COMPOUND": "C[C@@H]1Cc2ccsc2[C@H](C)N1CCNS(=O)(=O)c1ccc([N+](=O)[O-])cc1 (relative stereo)", "OBS VALUE": "116 to 119 °C"}
